Target: NDM-1 (Klebsiella pneumoniae)
Sequence (C7C422 whole entry, looked up, species assumed): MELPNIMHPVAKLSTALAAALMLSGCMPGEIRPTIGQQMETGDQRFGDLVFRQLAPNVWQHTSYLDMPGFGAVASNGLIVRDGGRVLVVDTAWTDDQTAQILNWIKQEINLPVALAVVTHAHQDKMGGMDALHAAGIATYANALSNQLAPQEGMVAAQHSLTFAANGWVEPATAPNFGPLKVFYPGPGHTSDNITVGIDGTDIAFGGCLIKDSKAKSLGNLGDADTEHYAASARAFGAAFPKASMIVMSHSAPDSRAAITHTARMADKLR
Experiment: biochemical
Assay type: biochemical
Details: fluorescence assay, CCF2-FA substrate, 1 pM enzyme, 2 hours at 25° C.; read-out: NDM-1 IC50
readoutKind: log10 IC50 (log10 of the value in nM)

NC[C@@H](O)CNS(=O)(=O)c1ccc(-c2cccc3[nH]c(N)nc23)c(-c2nn[nH]n2)c1S(N)(=O)=O: -1.24
Nc1nc2c(-c3ccc(S(=O)(=O)NCC4CCN4)c(S(N)(=O)=O)c3-c3nn[nH]n3)cccc2[nH]1 (centres unmarked): -0.56
CC(CN1CCOCC1)NS(=O)(=O)c1ccc(-c2cccc3sc(N)nc23)c(-c2nnn[nH]2)c1S(N)(=O)=O (centres unmarked): -1.01
NCc1nc2c(-c3ccc(S(=O)(=O)N[C@@H]4CCNC4)c(S(N)(=O)=O)c3-c3nn[nH]n3)cccc2s1: -1.25
Nc1ccc(-c2ccc(S(=O)(=O)N[C@H]3CN[C@H](CO)C3)c(S(N)(=O)=O)c2-c2nn[nH]n2)cn1: -0.93
CN1CC[C@@H](CNS(=O)(=O)c2ccc(-c3cccc4sc(N)nc34)c(-c3nnn[nH]3)c2S(N)(=O)=O)C1: -1.55
NC[C@H](O)CNS(=O)(=O)c1ccc(-c2cccc3[nH]c(N)nc23)c(-c2nn[nH]n2)c1S(N)(=O)=O: -1.22
C[C@@H](N)CNS(=O)(=O)c1ccc(-c2ccnc(N)c2)c(-c2nn[nH]n2)c1S(N)(=O)=O: -0.41
NCC(CO)(CO)NS(=O)(=O)c1ccc(-c2cccc3[nH]c(N)nc23)c(-c2nn[nH]n2)c1S(N)(=O)=O: -1.48
Nc1ccc(-c2ccc(S(=O)(=O)N[C@H]3CCCNC3)c(S(N)(=O)=O)c2-c2nn[nH]n2)cn1: -0.56
Nc1ccc(-c2ccc(S(=O)(=O)NCCc3c[nH]cn3)c(S(N)(=O)=O)c2-c2nn[nH]n2)cn1: -0.35
Nc1nc2c(-c3ccc(S(=O)(=O)NCC(=O)O)c(S(N)(=O)=O)c3-c3nn[nH]n3)cccc2s1: -0.55
Nc1nc2c(-c3ccc(S(=O)(=O)NCCO)c(S(N)(=O)=O)c3-c3nn[nH]n3)cccc2s1: -1.05
NS(=O)(=O)c1ccc(-c2cccc3cn[nH]c23)c(-c2nn[nH]n2)c1S(N)(=O)=O: -0.82
